# target-desc: PD-1/PD-L1 (Homo sapiens (Human))
# protocol-text: PD-1/PD-L1 biochemical protein-protein interaction assay (ALPHA)
# protocol-conditions: 0.3 nM His tagged PD-L1, 2.5 nM biotinylated Fc-PD-1, 60 minutes at 25° C., read-out: IC50 PD-L1-PD1
Entries and their measured pIC50 follow.
Notebook: values listed as pIC50 are -log10 of the concentration (mol/L).

1) COc1nc(-c2cccc(-c3cccc(-c4cnc(CN5CC6(C5)CN(C(C)=O)C6)c(OC)n4)c3Cl)c2Cl)cnc1CN; 9.89
2) COc1nc(-c2cccc(-c3cccc(-c4cnc(CNCC5(C#N)CCC5)c(OC)n4)c3Cl)c2Cl)cnc1CNC[C@@H]1CCC(=O)N1; 9.08

Query string: Can you share its pIC50? I mean this compound: "COc1cc(-c2cccc(-c3cccc(-c4cnc(CN)c(OC)n4)c3Cl)c2Cl)ccc1CN"
Result string: 8.77

Query string: "COc1nc(-c2cccc(-c3cccc(-c4cnc(CN5CC6(CCC(=O)N6)C5)c(OC)n4)c3Cl)c2Cl)cnc1CN" , same question.
Result string: 10.19

Query string: "COc1nc(-c2cccc(-c3cccc(-c4cnc(CN5CC[C@@H](O)C5)c(OC)n4)c3Cl)c2Cl)cnc1CNC[C@@H]1CCC(=O)N1" , same question.
Result string: 9.69

Query string: "COc1nc(-c2cccc(-c3cccc(-c4cnc(CN5C[C@H](O)C[C@H]5CO)c(OC)n4)c3Cl)c2Cl)cnc1CNC[C@@H]1CCC(=O)N1" , same question.
Result string: 9.63

###

# target-desc: PD-1/PD-L1 (Homo sapiens (Human), UniProt Q9NZQ7)
# Sequence (Q9NZQ7 19-238): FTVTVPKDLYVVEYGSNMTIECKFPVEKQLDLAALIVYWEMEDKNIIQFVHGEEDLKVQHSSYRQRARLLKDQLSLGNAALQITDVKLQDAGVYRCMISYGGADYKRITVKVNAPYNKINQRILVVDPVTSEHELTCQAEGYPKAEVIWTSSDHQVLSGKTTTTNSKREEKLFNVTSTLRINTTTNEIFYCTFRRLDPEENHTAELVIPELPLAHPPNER
# protocol-text: PD-1/PD-L1 biochemical protein-protein interaction assay (ALPHA)
# protocol-conditions: 0.3 nM His tagged PD-L1, 2.5 nM biotinylated Fc-PD-1, 60 minutes at 25° C., read-out: IC50 PD-L1-PD1
endpoint: IC50 (pM)
State just the number; it will be interpreted in pM.

Field: example entries. Status: answers known.
1) COC[C@H]1CCCN1Cc1ncc(-c2cccc(-c3cccc(-c4cnc(CNC[C@@H]5CCC(=O)N5)c(OC)n4)c3Cl)c2Cl)nc1OC [compound 21]; 525
2) COc1nc(-c2cccc(-c3cccc(-c4ccc5c(CN6CC7(CCC(=O)N7)C6)cn(C)c5n4)c3Cl)c2Cl)cnc1CN1CC2(CCC(=O)N2)C1 [compound 494]; 139
3) COc1nc(-c2cccc(-c3cccc(-c4cnc(C5=NCCN5)c(OC)n4)c3Cl)c2Cl)cnc1CN [compound 584]; 118

Query string: Can you share its IC50? I mean this compound: COc1nc(-c2cccc(-c3cccc(-c4cc(C)c(CN5C[C@@H]6CCC[C@]6(C(=O)O)C5)c(OC)n4)c3Cl)c2Cl)cnc1CNC[C@@H]1CCC(=O)N1 [compound 655]
Result string: 64

Query string: COc1nc(-c2cccc(-c3cccc(-c4cnc(CNC[C@@H]5CCC(=O)N5)c(OC)n4)c3Cl)c2Cl)cnc1CNC[C@H]1CCOC1 [compound 296] , same question.
Result string: 222

Query string: COc1nc(-c2cccc(-c3cc(F)cc(-c4cnc(CN5CC(O)C5)c(OC)n4)c3Cl)c2Cl)cnc1CN1CC(O)C1 [compound 399] , same question.
Result string: 324

Query string: COc1nc(-c2cccc(-c3cccc(-c4cnc(CN(CC5CC5)C[C@@H]5CCC(=O)N5)c(OC)n4)c3Cl)c2Cl)cnc1CN(CC1CC1)C[C@@H]1CCC(=O)N1 [compound 328] , same question.
Result string: 4040

Query string: COc1nc(-c2cccc(-c3cccc(-c4cnc(CNC[C@@H]5CCC(=O)N5)c(OC)n4)c3Cl)c2Cl)cnc1CNCCOC(N)=O [compound 25] , same question.
Result string: 80

Query string: COc1nc(-c2cccc(-c3cccc(-c4cnc(CNC[C@H]5CCC(=O)N5)c(OC)n4)c3Cl)c2Cl)cnc1CNCC1CNC(=O)C1 (stereo partly drawn) [compound 196] , same question.
Result string: 170

Query string: COc1nc(-c2cccc(-c3cccc(-c4cnc(CNCC5CN(C(C)=O)C5)c(OC)n4)c3Cl)c2Cl)cnc1CNCC1CN(C(C)=O)C1 [compound 189] , same question.
Result string: 94

FYI, the data here is from patent US10710986B2.
